Measured values drawn from ChEMBL document CHEMBL4339210 for this set.

experiment: Acute toxicity in KM mouse assessed as effect on survival at 50 to 1000 mg/kg, po after 24 hrs; assay type: organism-based; conditions: in vivo
MEASURE_NAME: LD50 at 24 h

input: # get_value(readout='LD50 at 24 h', item= CN1CCc2ccc(OCCCN3CCOCC3)cc2C1=O )
output: > 1000 mg/kg

###

The following molecules have recorded pKi on Histamine H1 receptor (Cavia porcellus).
Sequence (P31389 whole entry): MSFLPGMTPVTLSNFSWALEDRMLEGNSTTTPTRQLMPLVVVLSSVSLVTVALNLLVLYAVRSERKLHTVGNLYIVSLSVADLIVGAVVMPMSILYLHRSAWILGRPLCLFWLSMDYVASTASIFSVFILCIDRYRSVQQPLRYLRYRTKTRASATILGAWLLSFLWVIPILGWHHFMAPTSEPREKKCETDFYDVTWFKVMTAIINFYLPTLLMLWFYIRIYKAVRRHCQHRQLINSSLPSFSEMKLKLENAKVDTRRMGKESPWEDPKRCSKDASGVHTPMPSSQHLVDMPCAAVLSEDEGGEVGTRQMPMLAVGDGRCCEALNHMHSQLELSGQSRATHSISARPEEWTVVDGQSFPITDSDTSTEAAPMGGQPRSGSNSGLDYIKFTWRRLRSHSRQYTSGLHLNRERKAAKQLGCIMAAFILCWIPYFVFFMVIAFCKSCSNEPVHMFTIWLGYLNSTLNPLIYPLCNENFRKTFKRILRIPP
Schema: pKi number; meaning minus log10 of the concentration expressed in molar units.

input: # get_value(readout='pKi', item= CN1CCc2ccc(OCCCN3CCCC3)cc2C1=O )
output: 7.41

input: # get_value(readout='pKi', item= CN1CCc2ccc(OCCCN3CCOCC3)cc2C1=O )
output: 8.19

input: # get_value(readout='pKi', item= CC1CCCCN1CCCOc1ccc2c(c1)C(=O)N(C)CC2 (centres undefined) )
output: 6.78

input: # get_value(readout='pKi', item= NC(=O)c1ccc(OCCCN2C[C@H]3CCC[C@H]3C2)cc1 )
output: 8.44

input: # get_value(readout='pKi', item= CN1CCc2ccc(OCCN3CCOCC3)cc2C1=O )
output: 5.92

input: # get_value(readout='pKi', item= CC1CCN(CCCOc2ccc3c(c2)C(=O)N(C)CC3)CC1 )
output: 7.49

input: # get_value(readout='pKi', item= CC1CCCN1CCCOc1ccc2c(c1)C(=O)N(C)CC2 (centres undefined) )
output: 7.59

input: # get_value(readout='pKi', item= CCN(CC)CCCOc1ccc2c(c1)C(=O)N(C)CC2 )
output: 6.27
